# assay name: Cmax in chimpanzee at 1 mg/kg, po
# Assay type: ADME, organism-based, Pan troglodytes
# Parameters: dose 1 mg/kg, route oral
# reported conditions: in vivo

{"compound": "COCCN(CCOC)c1nc(C)nc2c(-c3ccc(OC)cc3C)c(C)nn12.O=S(=O)(O)c1ccccc1", "Cmax [nM]": 27}
{"compound": "CC[C@@H](C)Nc1nc(C)nc2c(-c3ccc(OC)nc3C)c(C)nn12", "Cmax [nM]": 840}

###

# assay name: Cmax in rat at 5 mg/kg, po
# Assay type: ADME, organism-based
# Design: dose 5 mg/kg, route oral
# reported conditions: in vivo

{"compound": "CC[C@@H](C)Nc1nc(C)nc2c(-c3ccc(OC)nc3C)c(C)nn12", "measurement unit": "nM", "Cmax": 1260}
{"compound": "COCCN(CCOC)c1nc(C)nc2c(-c3ccc(OC)cc3C)c(C)nn12.O=S(=O)(O)c1ccccc1", "measurement unit": "nM", "Cmax": 851}

###

# subject of test: Corticotropin-releasing factor receptor 1 (Rattus norvegicus, UniProt P35353)
# Sequence (P35353 whole entry): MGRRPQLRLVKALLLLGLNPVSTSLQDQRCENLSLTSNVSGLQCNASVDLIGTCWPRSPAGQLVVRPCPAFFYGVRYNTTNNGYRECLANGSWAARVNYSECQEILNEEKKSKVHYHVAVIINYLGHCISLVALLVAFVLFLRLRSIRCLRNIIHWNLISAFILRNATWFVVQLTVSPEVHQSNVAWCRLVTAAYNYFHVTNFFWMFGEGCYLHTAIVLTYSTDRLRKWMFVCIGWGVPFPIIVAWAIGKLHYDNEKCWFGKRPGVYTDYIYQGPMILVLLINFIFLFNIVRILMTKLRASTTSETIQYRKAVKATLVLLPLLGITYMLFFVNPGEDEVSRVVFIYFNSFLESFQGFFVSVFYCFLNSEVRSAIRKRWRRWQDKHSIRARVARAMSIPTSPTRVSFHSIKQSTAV
# assay name: Displacement of [125I]Tyro-rat/human CRF from CRF1 receptor in rat cortical membrane by gamma counting
# Format: cell membranes
Entries and their log10(IC50)
observable: log10(IC50) (log10 of the value in nM)

{"compound": "CC[C@H](C)Nc1nc(C)nc2c(-c3ccc(OC)nc3C)c(C)nn12", "subject of test": "Corticotropin-releasing factor receptor 1 (Rattus norvegicus, UniProt P35353)", "observable": "log10(IC50)", "quantitative readout": 0.85}
{"compound": "CCN(C)c1nc(C)nc2c(-c3ccc(OC)nc3C)c(C)nn12", "subject of test": "Corticotropin-releasing factor receptor 1 (Rattus norvegicus, UniProt P35353)", "observable": "log10(IC50)", "quantitative readout": 1.91}
{"compound": "CCCCC(C)Nc1nc(C)nc2c(-c3ccc(OC)nc3C)c(C)nn12 (stereo not given)", "subject of test": "Corticotropin-releasing factor receptor 1 (Rattus norvegicus, UniProt P35353)", "observable": "log10(IC50)", "quantitative readout": 0.71}
{"compound": "CCC(CC)Nc1nc(C)nc2c(-c3cnc(N(C)C)cc3C)c(C)nn12", "subject of test": "Corticotropin-releasing factor receptor 1 (Rattus norvegicus, UniProt P35353)", "observable": "log10(IC50)", "quantitative readout": 1.39}
{"compound": "CCCCN(CC)c1nc(C)nc2c(-c3ccc(OC)nc3C)c(C)nn12", "subject of test": "Corticotropin-releasing factor receptor 1 (Rattus norvegicus, UniProt P35353)", "observable": "log10(IC50)", "quantitative readout": 0.69}
{"compound": "CCCCN(CCC)c1nc(C)nc2c(-c3ccc(OC)nc3C)c(C)nn12", "subject of test": "Corticotropin-releasing factor receptor 1 (Rattus norvegicus, UniProt P35353)", "observable": "log10(IC50)", "quantitative readout": 0.38}
{"compound": "CCCN(CCC)c1nc(C)nc2c(-c3c(C)cc(N(C)C)nc3C)c(C)nn12", "subject of test": "Corticotropin-releasing factor receptor 1 (Rattus norvegicus, UniProt P35353)", "observable": "log10(IC50)", "quantitative readout": 1.17}
{"compound": "CCCC(C)Nc1nc(C)nc2c(-c3ccc(OC)nc3C)c(C)nn12 (stereo not given)", "subject of test": "Corticotropin-releasing factor receptor 1 (Rattus norvegicus, UniProt P35353)", "observable": "log10(IC50)", "quantitative readout": 0.54}
{"compound": "CCC(CC)Nc1nc(C)nc2c(-c3c(C)cc(N(C)C)nc3C)c(C)nn12", "subject of test": "Corticotropin-releasing factor receptor 1 (Rattus norvegicus, UniProt P35353)", "observable": "log10(IC50)", "quantitative readout": 1.41}

###

# assay name: Volume of distribution at steady state in chimpanzee at 0.5 mg/kg, iv
# Format: ADME, organism-based, Pan troglodytes
# Parameters: dose 0.5 mg/kg, route intravenous
# reported conditions: in vivo, read-out: Vdss
Reported Vd is given for each of the following molecules.

{"compound": "COCCN(CCOC)c1nc(C)nc2c(-c3ccc(OC)cc3C)c(C)nn12.O=S(=O)(O)c1ccccc1", "Vd (L/kg)": 9.52}
{"compound": "CC[C@@H](C)Nc1nc(C)nc2c(-c3ccc(OC)nc3C)c(C)nn12", "Vd (L/kg)": 4.2}

###

# assay name: Solubility in acetone
# Assay type: physicochemical
observable: solubility (mg/mL)

{"compound": "CC[C@@H](C)Nc1nc(C)nc2c(-c3ccc(OC)nc3C)c(C)nn12", "measurement unit": "mg/mL", "quantitative readout": 460}

###

# assay name: Plasma concentration in dog at 1 mg/kg after intravenous infusion for 30 mins
# Assay type: ADME, organism-based, Canis lupus familiaris
# Design: dose 1 mg/kg, route intravenous

{"molecule": "CC[C@@H](C)Nc1nc(C)nc2c(-c3ccc(OC)nc3C)c(C)nn12 [PEXACERFONT]", "concentration at 0.5 h / nM": 473}

###

# assay name: Plasma concentration in rat at 30 mg/kg, po after 1 hr
# Type: ADME, organism-based
# Set-up: dose 30 mg/kg, route oral
observable: concentration at 1 h (µM)

{"compound": "CC[C@@H](C)Nc1nc(C)nc2c(-c3ccc(OC)nc3C)c(C)nn12 [PEXACERFONT]", "measurement unit": "µM", "quantitative readout": 3.99}

###

# assay name: Oral bioavailability in rat at 5 mg/kg
# Type: ADME, organism-based
# reported conditions: in vivo

{"compound": "COCCN(CCOC)c1nc(C)nc2c(-c3ccc(OC)cc3C)c(C)nn12.O=S(=O)(O)c1ccccc1", "bioavailability, %": 51}
{"compound": "CC[C@@H](C)Nc1nc(C)nc2c(-c3ccc(OC)nc3C)c(C)nn12 [PEXACERFONT]", "bioavailability, %": 40}

###

# assay name: Clearance in chimpanzee at 0.5 mg/kg, iv
# Type: ADME, organism-based, Pan troglodytes
# Set-up: dose 0.5 mg/kg, route intravenous
# reported conditions: in vivo
observable: clearance (mL/min/kg)

{"compound": "CC[C@@H](C)Nc1nc(C)nc2c(-c3ccc(OC)nc3C)c(C)nn12", "observable": "clearance", "quantitative readout": 2}
{"compound": "COCCN(CCOC)c1nc(C)nc2c(-c3ccc(OC)cc3C)c(C)nn12.O=S(=O)(O)c1ccccc1", "observable": "clearance", "quantitative readout": 10.2}

###

# solubility values compiled below
# assay name: Solubility in dilute HCl at pH 2.3
# Type: physicochemical

{"compound": "COCCN(CCOC)c1nc(C)nc2c(-c3ccc(OC)cc3C)c(C)nn12.O=S(=O)(O)c1ccccc1", "solubility": "2500 µg/mL"}
{"compound": "COCC(COC)Nc1nc(C)nc2c(-c3ccc(Cl)cc3Cl)c(C)nn12", "solubility": "230 µg/mL"}

###

# subject of test: Corticotropin-releasing factor receptor 1 (Rattus norvegicus)
# assay name: Agonist activity at CRF1 receptor in rat pituitary cells
observable: IC50 (nM)

{"compound": "COCCN(CCOC)c1nc(C)nc2c(-c3ccc(OC)cc3C)c(C)nn12.O=S(=O)(O)c1ccccc1", "measurement unit": "nM", "quantitative readout": 72.9}

###

# subject of test: Corticotropin-releasing factor receptor 1 (Rattus norvegicus, UniProt P35353)
# assay name: Displacement of [125I]Tyro-rat/human CRF from CRF1 receptor in rat cortical membrane by gamma counting
# Type: cell membranes
pIC50: −log10 of the molar value.
Listed below: pIC50 values for each entry.
observable: pIC50

{"compound": "CCCN(CCC)c1nc(C)nc2c(-c3ccc(OC)nc3C)c(C)nn12", "observable": "pIC50", "quantitative readout": 8.24}
{"compound": "CCCCN(CCC)c1nc(C)nc2c(-c3c(C)cc(N(C)C)nc3C)c(C)nn12", "observable": "pIC50", "quantitative readout": 7.89}
{"compound": "CCC[C@H](C)Nc1nc(C)nc2c(-c3ccc(OC)nc3C)c(C)nn12", "observable": "pIC50", "quantitative readout": 8.35}
{"compound": "CCN(CCOC)c1nc(C)nc2c(-c3ccc(OC)nc3C)c(C)nn12", "observable": "pIC50", "quantitative readout": 8.18}
{"compound": "CCN(CC)c1nc(C)nc2c(-c3ccc(OC)nc3C)c(C)nn12", "observable": "pIC50", "quantitative readout": 7.92}

Entry source: ChEMBL document CHEMBL1138476
